experiment: logD of the unconjugated NIR cyanine dyes 1–3; type: physicochemical; conditions: 1-octanol/water; unconjugated dye
endpoint_name: logD
Answer with a bare number; do not write a unit.

Use the examples below as a reference point.
Entry under review: CC1(C)C(/C=C/C2=C(c3ccc(CCC(=O)O)cc3)C(=C/C=C3/N(CCCCS(=O)(=O)[O-])c4ccc(S(=O)(=O)O)cc4C3(C)C)/CCC2)=[N+](CCCCS(=O)(=O)O)c2ccc(S(=O)(=O)O)cc21 . Reported logD?
-3.95

Entry under review: CC1(C)C(/C=C/C2=C(c3ccc(C(=O)O)cc3)C(=C/C=C3/N(CCCCS(=O)(=O)[O-])c4ccc5ccccc5c4C3(C)C)/CCC2)=[N+](CCCCS(=O)(=O)O)c2ccc3ccccc3c21 . Reported logD?
-1.03

Continuing:
Entry under review: CC1(C)C(/C=C/C2=C(c3ccccc3)C(=C/C=C3/N(CCCCS(=O)(=O)[O-])c4ccc(S(=O)(=O)O)cc4C3(C)C)/CCC2)=[N+](CCCCS(=O)(=O)O)c2ccc(C(=O)O)cc21 . Reported logD?
-4

====

// reported logD for each item listed
test: water/1-octanol partition coefficients (logD) of 68Ga-labeled compounds, γ-counting; type: physicochemical; conditions: pH 7.4
Answer with a bare number; do not write a unit.

Use the examples below as a reference point.
Entry under review: CC1(C)C(/C=C/C2=C(c3ccc(C(=O)NCCCC[C@H](NC(=O)CC[C@H](C(=O)O)N4CCN(CC(=O)O)CCN(CC(=O)O)CC4)C(=O)N[C@@H](CS)C(N)=O)cc3)C(=C/C=C3/N(CCCCS(=O)(=O)[O-])c4ccc5ccccc5c4C3(C)C)/CCC2)=[N+](CCCCS(=O)(=O)O)c2ccc3ccccc3c21 [Compound 10] . Reported logD?
−1.29

Entry under review: CC1(C)C(=CC=C2CCCC(C=CC3=[N+](CCCCS(=O)(=O)[O-])c4ccc(S(=O)(=O)O)cc4C3(C)C)=C2c2ccc(CCC(=O)NCCCC[C@H](NC(=O)CC[C@H](C(=O)O)N3CCN(CC(=O)O)CCN(CC(=O)O)CC3)C(=O)N[C@@H](CS)C(N)=O)cc2)N(CCCCS(=O)(=O)O)c2ccc(S(=O)(=O)O)cc21 [Compound 12] . Reported logD?
−3.47

Entry under review: CC1(C)C(/C=C/C2=C(c3ccc(C(=O)NCCCC[C@H](NC(=O)CC[C@H](C(=O)O)N4CCN(CC(=O)O)CCN(CC(=O)O)CC4)C(=O)N[C@@H](CS)C(N)=O)cc3)C(=C/C=C3/N(CCCCS(=O)(=O)[O-])c4ccc5ccccc5c4C3(C)C)/CCC2)=[N+](CCCCS(=O)(=O)O)c2ccc3ccccc3c21 (single isomer, unassigned) [[68Ga]Ga-10, metal not drawn] . Reported logD?
-1.29

Entry under review: CC1(C)C(=CC=C2CCCC(C=CC3=[N+](CCCCS(=O)(=O)[O-])c4ccc(C(=O)NCCCC[C@H](NC(=O)CC[C@H](C(=O)O)N5CCN(CC(=O)O)CCN(CC(=O)O)CC5)C(=O)N[C@@H](CS)C(N)=O)cc4C3(C)C)=C2c2ccccc2)N(CCCCS(=O)(=O)O)c2ccc(S(=O)(=O)O)cc21 [Compound 11] . Reported logD?
−3.05

Entry under review: CC1(C)C(=CC=C2CCCC(C=CC3=[N+](CCCCS(=O)(=O)[O-])c4ccc(S(=O)(=O)O)cc4C3(C)C)=C2c2ccc(CCC(=O)NCCCC[C@H](NC(=O)CC[C@H](C(=O)O)N3CCN(CC(=O)O)CCN(CC(=O)O)CC3)C(=O)N[C@@H](CS)C(N)=O)cc2)N(CCCCS(=O)(=O)O)c2ccc(S(=O)(=O)O)cc21 (single isomer, unassigned) [[68Ga]Ga-12, metal not drawn] . Reported logD?
-3.47

Continuing:
Entry under review: CC1(C)C(=CC=C2CCCC(C=CC3=[N+](CCCCS(=O)(=O)[O-])c4ccc(C(=O)NCCCC[C@H](NC(=O)CC[C@H](C(=O)O)N5CCN(CC(=O)O)CCN(CC(=O)O)CC5)C(=O)N[C@@H](CS)C(N)=O)cc4C3(C)C)=C2c2ccccc2)N(CCCCS(=O)(=O)O)c2ccc(S(=O)(=O)O)cc21 (single isomer, unassigned) [[68Ga]Ga-11, metal not drawn] . Reported logD?
-3.05
